Recorded values, source PubChem BioAssay AID2060606.

viability, T/C values, listed per item
Test system: 922993-354-T-J3-PDC complex spheroids, viability, % test/control
METHOD_DESCRIPTION: Anticancer human tumor 922993-354-T-J3-PDC patient-derived endometrial carcinoma cell line growth inhibition [CLK]
RECORDED_CONDITIONS: second compound 1 µM; first compound 10 µM; active compounds read low

Below are worked cases with known answers.
Nc1ccccc1NC(=O)c1ccc(CNC(=O)OCc2cccnc2)cc1 + CNC(=O)c1ccc(Nc2nc(OC3CCCC3)c3c(-c4ccc5nc(C)oc5c4)c[nH]c3n2)c(OC)c1 | 8.75%
CC(=O)O[C@H]1C(=O)[C@@]2(C)[C@H]([C@H](OC(=O)c3ccccc3)[C@]3(O)C[C@H](OC(=O)[C@H](O)[C@@H](NC(=O)c4ccccc4)c4ccccc4)C(C)=C1C3(C)C)[C@]1(OC(C)=O)CO[C@@H]1C[C@@H]2O + CNC(=O)c1ccc(Nc2nc(OC3CCCC3)c3c(-c4ccc5nc(C)oc5c4)c[nH]c3n2)c(OC)c1 | 47.1%
CC1(C)CCC(CN2CCN(c3ccc(C(=O)NS(=O)(=O)c4ccc(NCC5CCOCC5)c([N+](=O)[O-])c4)c(Oc4cnc5[nH]ccc5c4)c3)CC2)=C(c2ccc(Cl)cc2)C1 + CNC(=O)c1ccc(Nc2nc(OC3CCCC3)c3c(-c4ccc5nc(C)oc5c4)c[nH]c3n2)c(OC)c1 | 17.9%

Query string: Suppose we examine the compound CC1COCCN1c1cc(C2(S(C)(=N)=O)CC2)nc(-c2ccnc3[nH]ccc23)n1 (centres undefined) + CNC(=O)c1ccc(Nc2nc(OC3CCCC3)c3c(-c4ccc5nc(C)oc5c4)c[nH]c3n2)c(OC)c1 ; what viability, T/C value has been reported?
Result string: 14.7%

---

viability, T/C values, listed per item
Tested on: 922993-354-T-J3-PDC complex spheroids, viability, % test/control
METHOD_DESCRIPTION: Anticancer human tumor 922993-354-T-J3-PDC cell line growth inhibition [CLK];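 also: spheroids exposed to the agents for 7 days before readout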
RECORDED_CONDITIONS: second compound 1 µM; first compound 0.01 µM; active compounds read low
Your answer is read as %, so omit the unit and give the number.

Query string: Suppose we examine the molecule CCN1CCN(Cc2ccc(Nc3ncc(F)c(-c4cc(F)c5nc(C)n(C(C)C)c5c4)n3)nc2)CC1 + CNC(=O)c1ccc(Nc2nc(OC3CCCC3)c3c(-c4ccc5nc(C)oc5c4)c[nH]c3n2)c(OC)c1 ; what viability, T/C value has been reported?
Result string: 33.6

Query string: Cool, now CCc1c2c(nc3ccc(O)cc13)-c1cc3c(c(=O)n1C2)COC(=O)[C@]3(O)CC + CN1CCN(c2cc(C(=O)Nc3cc4cc(-c5cnn(C)c5)ccc4cn3)ccn2)CC1
Result string: 0.13

Query string: Cool, now CCN1CCN(Cc2ccc(Nc3ncc(F)c(-c4cc(F)c5nc(C)n(C(C)C)c5c4)n3)nc2)CC1 + CN1CCN(c2cc(C(=O)Nc3cc4cc(-c5cnn(C)c5)ccc4cn3)ccn2)CC1
Result string: 0.79

---

viability, T/C values, listed per item
Test system: 922993-354-T-J3-PDC complex spheroids, viability, % test/control
METHOD_DESCRIPTION: Anticancer human tumor 922993-354-T-J3-PDC cell line growth inhibition [CLK];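 also: spheroids exposed to the agents for 7 days before readout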
RECORDED_CONDITIONS: second compound 0.1 µM; first compound 1 µM; active compounds read low
Your answer is read as %, so omit the unit and give the number.

Below are worked cases with known answers.
CCCS(=O)(=O)Nc1ccc(F)c(C(=O)c2c[nH]c3ncc(-c4ccc(Cl)cc4)cc23)c1F + CNC(=O)c1ccc(Nc2nc(OC3CCCC3)c3c(-c4ccc5nc(C)oc5c4)c[nH]c3n2)c(OC)c1 | 113
COC1C=CCC(C)C(C)S(=O)(=O)NC(=O)c2ccc3c(c2)N(CC2CCC21)CC1(CCCc2cc(Cl)ccc21)CO3 (stereo not drawn) + CNC(=O)c1ccc(Nc2nc(OC3CCCC3)c3c(-c4ccc5nc(C)oc5c4)c[nH]c3n2)c(OC)c1 | 105

Please examine the following record next.
Query string: Given the entry C=C(F)C(=O)N1CCN(c2nc(OCC3CCCN3C)nc3c2CCN(c2cccc4cccc(Cl)c24)C3)CC1CC#N (stereo not drawn) + CNC(=O)c1ccc(Nc2nc(OC3CCCC3)c3c(-c4ccc5nc(C)oc5c4)c[nH]c3n2)c(OC)c1 , what viability, T/C was observed with 922993-354-T-J3-PDC complex spheroids, viability, % test/control?
Result string: 91.9
